# subject.of.test: APE1 (Homo sapiens, UniProt P27695)
# Sequence (P27695 whole entry): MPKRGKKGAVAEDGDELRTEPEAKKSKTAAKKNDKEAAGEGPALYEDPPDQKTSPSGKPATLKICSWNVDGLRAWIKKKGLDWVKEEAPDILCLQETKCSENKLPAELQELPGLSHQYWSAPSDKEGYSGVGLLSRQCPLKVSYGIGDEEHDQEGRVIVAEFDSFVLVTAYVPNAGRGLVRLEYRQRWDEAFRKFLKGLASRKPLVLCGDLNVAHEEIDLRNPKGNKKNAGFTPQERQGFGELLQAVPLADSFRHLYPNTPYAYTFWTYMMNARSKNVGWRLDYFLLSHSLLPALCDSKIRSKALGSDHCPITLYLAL
readout.name: pIC50
When answering, recall that pIC50 equals minus log10 of the concentration in mol/L, and write that number alone.

# molecule CC(=O)Nc1sc2c(c1-c1nc3ccccc3s1)CNC2 [Compound 52] ; its pIC50 = 5.51

Data credit: paper PMC3515842
